Measured MIC values are reported for all entries that follow.
# System: C. parapsilosis ATCC 22019
# Procedure Summary: Checkerboard broth microdilution (CLSI)
# Type: cell-based
# Test Context: Lodderomyces parapsilosis, ATCC22019, single agent; isolate ATCC 22019; read-out: MIC
# Procedure: Isolates were tested against varying concentrations of amphotericin B and C2′epiAmB (range, 0.06 to 4 mg/L) and combined with fluconazole (range, 0.12 to 128 mg/L) or ketoconazole (range 0.008 to 8 mg/L) or voriconazole (range, 0.004 to 4 mg/L) using a checkerboard grid design following the Clinical and Laboratory Standards Institute (CLSI) broth microdilution method (M23Ed5).

{"Molecule": "C[C@@H]1[C@H](O)[C@@H](C)/C=C/C=C/C=C/C=C/C=C/C=C/C=C/[C@H](OC2O[C@H](C)[C@@H](O)[C@H](N)[C@H]2O)CC2O[C@](O)(C[C@@H](O)C[C@@H](O)[C@H](O)CC[C@@H](O)C[C@@H](O)CC(=O)O[C@H]1C)C[C@H](O)[C@H]2C(=O)O (stereo partly drawn) [C2′epiAmB, C2′epi amphotericin B]", "MIC [µg/mL]": 1}
{"Molecule": "CC(=O)N1CCN(c2ccc(OCC3COC(Cn4ccnc4)(c4ccc(Cl)cc4Cl)O3)cc2)CC1 (stereo not shown)", "MIC [µg/mL]": 0.06}
{"Molecule": "OC(Cn1cncn1)(Cn1cncn1)c1ccc(F)cc1F", "MIC [µg/mL]": 1}
{"Molecule": "C[C@@H](c1ncncc1F)[C@](O)(Cn1cncn1)c1ccc(F)cc1F", "MIC [µg/mL]": 0.03}
